Entries and their CC50
Experiment: Cytotoxicity against human MT4 cells assessed as reduction in cell viability incubated for 3 to 4 days by MTT assay
Format: cell-based

CCC(C)C(O)C(=O)O[C@H]1[C@H](OC=O)[C@H]([C@@]2(C)[C@@H](OC(C)=O)CC(=O)O[C@](C)(COC(C)=O)[C@@H]2CC(=O)OC)C(COC)=C2[C@H](O)C[C@@H](c3ccoc3)[C@@]21C (some centres not stated)	> 40 µM

Okay, now this compound:
INPUT: Consider the compound "C=C1[C@H]2C(=O)[C@@]3(C)[C@@H](O[C@@]14CC(=O)O[C@@H](c1ccoc1)[C@]4(C)[C@H]2O)[C@@H](O)[C@@H](OC(C)=O)C(C)(C)[C@@H]3CC(=O)OC" and give its measured CC50.
OUTPUT: > 40 µM
